All figures here come from patent US20100129346A1.

system_under_test: T1, Biotinylated Human C5aR Peptide (2nd loop), peptide 23 (human, N-terminal biotin)
T1 construct: immobilised on a streptavidin sensor chip for BIACore; also called Biotinylated-Peptide 23; Biot-peptide
T1 peptide: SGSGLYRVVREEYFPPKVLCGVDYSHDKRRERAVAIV
assay_name: SPR (BIACore 2000), biotinylated peptide 23 on SA chip, mAb as analyte
Reported Kd values for the following binders.
Give the number; nM is assumed, so skip it.

Worked examples, 3 binders total:
[in] Look up Kd: MAb 7F3 (antibody, V domains shown) VH: QVQLQQSGPELVKPGASVKISCKASGYAFSNSWMNWVKQRPGKGLEWIGRIYPGDGDTKYNGKFKGKATLTADKSSSTAYMQLSSLTSEDSAVYFCARFLLISTVTAVDYWGQGTTLTVSS VL: DVVMTQSPLSLPVSLGNQASISCRSSQSLVHSNGNTYLHWYLQKPGQSPKLLIYKVSNRFSGVPDRFSGSGSGTDFSLKISRVEAEDLGVYFCSQSTLVPLTFGAGTKLELK
[out] 0.7

[in] Look up Kd: MAb 3C5 (antibody, V domains shown) VH: DVQLQESGPGLVKPSQSLSLTCSVTGYSITSGNYWNWIRQFPGKKLEWMGHISYDGNNKYNPSLKNRISITRDTSKNQFFLRLNSVTAEDTAAYYCALFYFDYASFTYWGQGTLVTVSA VL: DVVMTQTPLSLPVSLGDQASISCRSSQSLVHSNGNTYLHWYLRKPGQSPKLLIYKVSNRFSGVPDRFSGSGSGTDFTLKISRVEAEDLGVYFCSQSTHVPPTFGAGTKLELK
[out] 0.48

[in] Look up Kd: MAb 7H3 (antibody, V domains shown, Mouse monoclonal antibody from a hybridoma (ECACC 06081802); also called 7H3-N9) VH: EVKLEESGGGLVQPGGSMKLSCVASGFTFSDAWMDWVRQSPEKGLEWVAGIRNRANNHATYYVASVKGRFTVSRDDSKSSVYLQMNSLRAEDAGIYYCTRGDGYFFDYWGQGTTLTVSS VL: DVVLTQTPLSLSVSLGDQASISCRSGQSLVHSNGNTYLHWYLQKPGQSSKLLIYKVSNRLSGVPDRFSGSGSGTDFTLKISRVEAEDLGVYFCSQTTHVPPTFGGGTKLEIK
[out] 16.7

Would you kindly look at the next entry?
[in] Look up Kd: MAb 8G7 (antibody, V domains shown, Mouse monoclonal antibody from a hybridoma (ECACC 06081803); also called 8G7-M6) VH: DIQLQESGPGLVKPSQSLSLTCSVTGYSITSGHYWNWIRQLPGNKMEWMGHISNDGSNRYNPSLKNRISITRDTSKNQFFLKLNSVTTEDTATYYCALFYFAYASFAYWGQGTLVTVSA VL: DVVMTQTPLSLPVSLGDQASISCRSSQSLLHSNGNTYLHWYLQKPGQSPKLLIYKVSTRFSGVPDRFSGSGSGADFTLQISRVEAEDLGVYLCSQSTHVPPTFGAGTKLVLT
[out] 1.6
